# MEASURED TARGET: human melanocortin-1 receptor (human) (UniProt Q01726)
# Sequence (Q01726 whole entry): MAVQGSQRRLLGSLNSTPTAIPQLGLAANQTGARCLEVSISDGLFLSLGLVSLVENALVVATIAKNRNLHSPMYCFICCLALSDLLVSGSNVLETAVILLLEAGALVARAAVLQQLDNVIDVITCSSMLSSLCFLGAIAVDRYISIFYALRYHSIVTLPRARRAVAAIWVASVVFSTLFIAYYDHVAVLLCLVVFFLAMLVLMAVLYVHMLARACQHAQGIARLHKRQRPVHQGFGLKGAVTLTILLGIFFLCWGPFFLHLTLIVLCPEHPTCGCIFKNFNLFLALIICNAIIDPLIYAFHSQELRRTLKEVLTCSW
# ASSAY DETAILS: cell-based or functional assay
Bridge positions count the residues as written; N and C are the ends. Square brackets hold non-standard residues; d marks the D form. Nle = CCCC[C@H](N)C(=O)O; Dab = NCC[C@H](N)C(=O)O
MEASURED ATTRIBUTE: MC-1 Emax (average; cAMP HBL) (%)
Give the number; % is assumed, so skip it.

Short answer for Ac-[Nle]EP[dF]R[Dab]W-NH2 (lactam 2-6; SMILES CCCC[C@H](NC(C)=O)C(=O)N[C@H]1CCC(=O)NCC[C@@H](C(=O)N[C@@H](Cc2c[nH]c3ccccc23)C(N)=O)NC(=O)[C@H](CCCNC(=N)N)NC(=O)[C@@H](Cc2ccccc2)NC(=O)[C@@H]2CCCN2C1=O) [Ac-Nle-cyclo(Glu-Pro-D-Phe-Arg-Dab)-Trp-NH2] : MC-1 Emax (average; cAMP HBL) was 97
